# SYSTEM TESTED: NEK7 (Homo sapiens (Human), UniProt Q8TDX7+Q96SW2)
# Sequence (Q8TDX7 whole entry): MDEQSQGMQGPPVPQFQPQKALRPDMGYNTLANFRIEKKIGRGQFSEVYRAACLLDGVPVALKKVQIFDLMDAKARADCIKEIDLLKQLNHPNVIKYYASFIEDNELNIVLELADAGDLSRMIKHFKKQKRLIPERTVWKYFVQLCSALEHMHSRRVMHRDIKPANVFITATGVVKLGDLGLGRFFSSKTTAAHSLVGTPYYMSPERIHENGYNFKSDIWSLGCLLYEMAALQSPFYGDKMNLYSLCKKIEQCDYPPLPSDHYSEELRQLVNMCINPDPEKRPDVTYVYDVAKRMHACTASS
# Sequence (Q96SW2 whole entry): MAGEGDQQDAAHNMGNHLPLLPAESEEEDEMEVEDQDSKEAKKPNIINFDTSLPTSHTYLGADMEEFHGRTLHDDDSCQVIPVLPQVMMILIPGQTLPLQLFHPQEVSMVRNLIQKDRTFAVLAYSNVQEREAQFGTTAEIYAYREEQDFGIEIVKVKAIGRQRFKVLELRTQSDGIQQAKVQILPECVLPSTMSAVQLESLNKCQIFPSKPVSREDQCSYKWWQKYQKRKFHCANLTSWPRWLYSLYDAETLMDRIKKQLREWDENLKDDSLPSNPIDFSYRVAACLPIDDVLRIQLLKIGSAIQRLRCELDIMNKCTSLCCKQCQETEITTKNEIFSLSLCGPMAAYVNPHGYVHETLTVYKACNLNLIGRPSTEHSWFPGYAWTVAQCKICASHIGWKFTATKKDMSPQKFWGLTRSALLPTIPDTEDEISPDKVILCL
# Sequence (Q16531 2-1140 partner): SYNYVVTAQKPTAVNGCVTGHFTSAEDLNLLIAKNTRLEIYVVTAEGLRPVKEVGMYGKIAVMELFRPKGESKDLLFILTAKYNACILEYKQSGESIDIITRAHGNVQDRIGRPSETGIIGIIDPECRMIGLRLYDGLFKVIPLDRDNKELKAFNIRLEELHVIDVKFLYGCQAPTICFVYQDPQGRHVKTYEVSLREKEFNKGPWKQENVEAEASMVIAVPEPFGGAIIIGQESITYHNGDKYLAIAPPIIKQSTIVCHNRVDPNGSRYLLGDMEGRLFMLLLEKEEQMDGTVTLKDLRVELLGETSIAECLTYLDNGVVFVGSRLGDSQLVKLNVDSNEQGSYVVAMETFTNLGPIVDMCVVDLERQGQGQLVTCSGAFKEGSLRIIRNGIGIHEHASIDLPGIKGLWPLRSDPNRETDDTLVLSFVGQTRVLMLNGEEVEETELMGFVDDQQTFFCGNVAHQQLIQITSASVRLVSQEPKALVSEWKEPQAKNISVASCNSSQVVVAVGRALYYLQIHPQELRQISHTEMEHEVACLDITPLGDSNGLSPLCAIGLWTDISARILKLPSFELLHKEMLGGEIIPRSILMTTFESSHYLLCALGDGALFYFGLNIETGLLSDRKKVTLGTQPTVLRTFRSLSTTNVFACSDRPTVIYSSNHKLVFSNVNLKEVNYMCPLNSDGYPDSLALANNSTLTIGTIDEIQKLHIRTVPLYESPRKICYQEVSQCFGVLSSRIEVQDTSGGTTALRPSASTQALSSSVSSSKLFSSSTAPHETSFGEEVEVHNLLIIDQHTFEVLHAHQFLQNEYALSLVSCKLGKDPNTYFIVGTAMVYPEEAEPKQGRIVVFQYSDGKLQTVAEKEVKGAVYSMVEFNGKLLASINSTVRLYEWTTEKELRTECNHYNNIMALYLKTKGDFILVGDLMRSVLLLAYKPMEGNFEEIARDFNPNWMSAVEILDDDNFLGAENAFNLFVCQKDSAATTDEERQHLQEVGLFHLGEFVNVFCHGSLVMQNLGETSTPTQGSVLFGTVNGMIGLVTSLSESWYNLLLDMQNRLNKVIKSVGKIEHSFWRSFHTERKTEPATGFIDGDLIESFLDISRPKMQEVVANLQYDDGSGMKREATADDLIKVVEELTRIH
# ASSAY INFO: NEK7 NanoBiT degradation assay in Cal51 NEK7 NanoBiT cell line
# Assay type: cell-based
# PARTICULARS: Cal51 NEK7 NanoBiT cells, 24 hours; read-out: NEK7 NanoBiT DC50
ATTRIBUTE MEASURED: DC50 (nM)

Q: # input compound: O=C1CCC(c2c(Cl)cc(CNC(=O)C3(c4ccc(F)cc4)COC3)cc2Cl)C(=O)N1 (stereo not shown) ; wanted: its DC50
Ans: 14

Q: DC50 lookup needed for COCc1cnc(C(C)(C)C(=O)NCc2cc(Cl)c(C3CCC(=O)NC3=O)c(Cl)c2)cn1 (stereo not shown) , thanks.
Ans: 54

Q: Entry CC(C)(C(=O)NCc1cc(Cl)c(C2CCC(=O)NC2=O)c(Cl)c1)c1ccnc(F)c1 (stereo not shown) has what DC50?
Ans: 4

Q: Which DC50 value is on record for O=C1CCC(c2c(Cl)cc(CNC(=O)C3(c4ccc5cn[nH]c5c4)CCOCC3)cc2Cl)C(=O)N1 (stereo not shown) ?
Ans: 1

Q: Item under review: CC(C)(C(=O)NCc1cc(Cl)c(C2CCC(=O)NC2=O)c(Cl)c1)c1ccc(S(N)(=O)=O)c(F)c1 (stereo not shown) . Reported DC50?
Ans: 2

[I] CC(C)(C(=O)NCc1cc(F)c(C2CCC(=O)NC2=O)c(Cl)c1)c1ccc(OC(F)F)nn1 (stereo not shown)
[II] CC(C)(O)c1cnc(C(C)(C)C(=O)NCc2cc(Cl)c(C3CCC(=O)NC3=O)c(Cl)c2)nc1 (stereo not shown)
Q: Hi! Which is lower in terms of DC50, the first one I or the second one II ? Your answer should be the label attached to the chosen record.
Ans: I
